Give measured thermal stability score for each item. Keep answers brief.
# Tested on: HeLa Kyoto;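 note: synchronized HeLa Kyoto cells, proteins quantified by TMT10plex mass spectrometry, three biological replicates, mitosis taken 0.5 h after nocodazole release, G1/S directly after double thymidine block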
# Procedure text: thermal stability score vs G1/S (z-score of summed log2 fold changes over temperatures); higher = more thermally stable than in G1/S
# Condition description: cell cycle stage: mitosis
Answers are plain numbers.

Example entries begin here.
INSERT INTO assay_data (input_sequence, recorded_value) VALUES
  ('MSSEEGKLFVGGLNFNTDEQALEDHFSSFGPISEVVVVKDRETQRSRGFGFITFTNPEHASVAMRAMNGESLDGRQIRVDHAGKSARGTRGGGFGAHGRGRSYSRGGGDQGYGSGRYYDSRPGGYGYGYGRSRDYNGRNQGGYDRYSGGNYRDNYDN [RBM3]', -4.74),
  ('MYTFVVRDENSSVYAEVSRLLLATGHWKRLRRDNPRFNLMLGERNRLPFGRLGHEPGLVQLVNYYRGADKLCRKASLVKLIKTSPELAESCTWFPESYVIYPTNLKTPVAPAQNGIQPPISNSRTDEREFFLASYNRKKEDGEGNVWIAKSSAGAKGEGILISSEASELLDFIDNQGQVHVIQKYLEHPLLLEPGHRKFDIRSWVLVDHQYNIYLYREGVLRTASEPYHVDNFQDKTCHLTNHCIQKEYSKNYGKYEEGNEMFFKEFNQYLTSALNITLESSILLQIKHIIRNCLLSVEPAISTKHLPYQSFQLFGFDFMVDEELKVWLIEVNGAPACAQKLYAELCQGIVDIAISSVFPPPDVEQPQTQPAAFIKL [TTL]', -0.119);

// switching to the query sequence
thermal stability score for MVSPATRKSLPKVKAMDFITSTAILPLLFGCLGVFGLFRLLQWVRGKAYLRNAVVVITGATSGLGKECAKVFYAAGAKLVLCGRNGGALEELIRELTASHATKVQTHKPYLVTFDLTDSGAIVAAAAEILQCFGYVDILVNNAGISYRGTIMDTTVDVDKRVMETNYFGPVALTKALLPSMIKRRQGHIVAISSIQGKMSIPFRSAYAASKHATQAFFDCLRAEMEQYEIEVTVISPGYIHTNLSVNAITADGSRYGVMDTTTAQGRSPVEVAQDVLAAVGKKKKDVILADLLPSLAVYLRTLAPGLFFSLMASRARKERKSKNS [DHRS7B] ?
-0.984
